Dear all, this message contains pIC50 results, target or system TRK A (Homo sapiens (Human)).
pIC50: −log10 of the molar value.

Worked cases, answers included:
>>> result("C[C@@H]1CCc2ncc(F)cc2[C@@H]2[C@H]3[C@@H](CN2c2ccn4ncc(c4n2)C(=O)N1)C3(C)C [Compound 17-13]")
"< 6.00"
>>> result("C[C@H]1CNC(=O)c2cnn3ccc(nc23)N2C[C@@H]3C[C@@H]3[C@H]2c2cc(F)cn1c2=O (single isomer, unassigned) [Compound 23-4]")
"< 6.00"

Turning now to a further compound:
Prompt: Entry under review: O=C1NC2(CCc3ncc(F)cc3[C@H]3[C@@H]4C[C@@H]4CN3c3ccn4ncc1c4n3)CC2 [Compound 19-5] . Reported pIC50?
Completion: > 7.00

###

For each entry below, report its pIC50 value.
# testedOn: TRK A (Homo sapiens (Human), UniProt P04629)
# Sequence (P04629 33-796): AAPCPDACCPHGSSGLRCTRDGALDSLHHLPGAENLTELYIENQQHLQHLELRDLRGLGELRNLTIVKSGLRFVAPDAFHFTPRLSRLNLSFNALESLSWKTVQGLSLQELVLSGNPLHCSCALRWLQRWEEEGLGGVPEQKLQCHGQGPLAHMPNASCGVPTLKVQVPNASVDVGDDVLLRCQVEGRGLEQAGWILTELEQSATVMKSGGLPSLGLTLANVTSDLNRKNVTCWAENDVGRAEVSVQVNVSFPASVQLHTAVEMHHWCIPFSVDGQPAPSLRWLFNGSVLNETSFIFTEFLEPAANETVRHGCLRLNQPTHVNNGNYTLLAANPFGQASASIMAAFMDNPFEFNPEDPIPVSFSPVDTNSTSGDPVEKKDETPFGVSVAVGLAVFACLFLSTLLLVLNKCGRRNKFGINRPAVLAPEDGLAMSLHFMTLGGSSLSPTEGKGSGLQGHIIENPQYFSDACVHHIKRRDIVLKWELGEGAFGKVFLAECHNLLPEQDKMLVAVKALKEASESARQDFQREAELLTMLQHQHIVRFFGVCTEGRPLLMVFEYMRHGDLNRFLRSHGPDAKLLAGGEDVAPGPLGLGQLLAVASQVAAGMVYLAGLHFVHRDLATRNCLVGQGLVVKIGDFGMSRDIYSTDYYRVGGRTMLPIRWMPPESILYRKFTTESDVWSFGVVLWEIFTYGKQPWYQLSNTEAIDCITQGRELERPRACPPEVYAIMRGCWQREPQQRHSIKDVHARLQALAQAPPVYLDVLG
# protocol: HotSpot assay platform, radiometric kinase inhibition
# Format: biochemical
# assayContext: 100 μM ATP, class symbol
pIC50: −log10 of the molar value.

Working through the 4 compounds below one at a time, give pIC50 for each.
1. C[C@@H]1CCn2cc(nn2)[C@@H]2CCCN2c2ccn3ncc(c3n2)C(=O)N1 [Compound 14-7]
2. O=C1NC2(CCc3ncc(F)cc3[C@@H]3[C@H]4C[C@H]4CN3c3ccn4ncc1c4n3)CC2 [Compound 19-6]
3. C[C@@H]1CCc2ccccc2N2CCCN2c2ccn3ncc(c3n2)C(=O)N1 [Compound 1-17]
4. CC1c2ncc(F)cc2[C@H]2CCCN2c2ccn3ncc(c3n2)C(=O)N[C@@H]1C (stereo partly shown) [Compound 11-6]

Completion:
1: < 6.00; 2: < 6.00; 3: > 7.00; 4: > 7.00
